B1: SAT2 (parent)
chain: IIKKVAEVALDKGCSQFRLAVLDW

variants of: B1; experiment: protein stability index of a GFP-peptide fusion (GPS, HEK-293T) (PSI 1-6); higher = more stable; details: c terminus: a fixed tail appended;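 further: lentivirally expressed fusions sorted by FACS into six bins by GFP to DsRed ratio, PSI derived from sequencing read proportions per bin multiplied by bin number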
Parameter threshold = 2. Response is rule met when protein stability index meets or exceeds it, else rule not met.

>>> label("IIKKDAEVALDKGCSQFRLAVLDW [V5D]")
"rule not met"
>>> label("SIKKVAEVALDKGCSQFRLAVLDW [I1S]")
"rule met"
>>> label("IIKKVANVALDKGCSQFRLAVLDW [E7N]")
"rule met"
>>> label("IIKKVAEVALQKGCSQFRLAVLDW [D11Q]")
"rule met"
>>> label("IIKKGAEVALDKGCSQFRLAVLDW [V5G]")
"rule met"
>>> label("IIKKVAEVALDKGCSQFRLAVLDT [W24T]")
"rule met"
>>> label("IIKKVAEVALDKGCSQFSLAVLDW [R18S]")
"rule met"
>>> label("IIKKVAEVALDKGCSQFRYAVLDW [L19Y]")
"rule met"
>>> label("IIKGVAEVALDKGCSQFRLAVLDW [K4G]")
"rule not met"
>>> label("IIKKVAEMALDKGCSQFRLAVLDW [V8M]")
"rule met"
